B1: HDV Ribozyme (parent)
chain: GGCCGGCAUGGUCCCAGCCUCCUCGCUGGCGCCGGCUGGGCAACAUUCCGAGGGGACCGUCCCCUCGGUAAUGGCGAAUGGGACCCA

Variants of: B1
Test: self-cleavage, relative activity (ratio to wild type); higher = more cleavage; co-transcriptional
measuredAttribute: self-cleavage

var="C48A A83G" result=0.791
var="U69A G73C" result=0.264
var="C24U G81A" result=0.185
var="C13G A16G" result=0.0831
var="C26G A71U" result=0.612
var="G25A G40A" result=0.317
var="G11U G17U" result=0.308
var="C18U C66U" result=0.801
var="A42C G81A" result=0.104
var="G10A U37A" result=0.0944
var="G17U G34U" result=0.0554
